These entries and their values trace back to the supplement of paper PMC11865577.

Measured pull-down binding Z-score, listed per entry for reference.
Tested on: TO-N3-2 (biotin conjugate)
experiment summary: pull-down binding Z-score (relative to library population); higher = stronger binding
condition context: RNA library: Library-2
Please respond with just the number, no unit label.

Completed entries (count: 3):
- GUGCUGGCAGUGGCCACGUAA [hsa-mir-4276]: 1.46
- GCACAUAUAUCUACUAUUGGUGUUUGUUCUAUGACUGACAUAGCCAAGAAACCAACUGAAACGAUUUGUGC: 0.00798
- UCCUGAGACAGGA [hsa-mir-4261]: -1.02

Q) Given the sequence AACUGCUUUUGGCUUAGUUGCAGAGUGGUU , what is its reported pull-down binding Z-score?
A) -0.255

Q) Given the sequence UGGCAAAGGGGUAGCUAAACAAUCUAUGUCUUUGCCA [hsa-mir-3119-1] , what is its reported pull-down binding Z-score?
A) -0.555

Q) Given the sequence GGAAACUGAGACUUUGUAACUAUGUCUCAGUCUCA [hsa-mir-452] , what is its reported pull-down binding Z-score?
A) -0.427

Q) Given the sequence GUCCGGGUGGGUUCCGGCA [hsa-mir-657] , what is its reported pull-down binding Z-score?
A) 2.1

Q) Given the sequence UGGUUUCCAACCCACUAAUGGUGUUGGUUACCA , what is its reported pull-down binding Z-score?
A) -1.18

Q) Given the sequence GCUGACACUACUGAUGCUGUCCGUGAUCCACAGACACUUGAGAUUCUUGACAUUACACCAUGUUCUUUUGGUGGUGUCAGU [SHAPE_invivo_SARS-CoV-2_Multi_58_ComplexLevel_1] , what is its reported pull-down binding Z-score?
A) 0.237

Q) Given the sequence GCCUUGUGGCAUGGAGUUCAAGC [hsa-mir-107] , what is its reported pull-down binding Z-score?
A) 1.54

Q) Given the sequence CAUUCUUUGCUA [hsa-mir-567] , what is its reported pull-down binding Z-score?
A) -0.53

###

Tested on: TO-N3-2 (biotin conjugate)
experiment summary: pull-down binding Z-score (relative to library population); higher = stronger binding
condition context: RNA library: Library-2
Quick rule: pull-down binding Z-score of at least 0.5 means T, below that means F.

• CAGGCUGCUAAACAACAGAACGAGCACUG [hsa-mir-378f] = F
• GAUGGUCAAGUAGACUUAUUUAGAAAUGCCCGUAAUGGUGUUCUUAUUACAGAAGGUAGUGUUAAAGGUUUACAACCAUC = F
• CGGAAUUCUCCAGAGCCUCUG [hsa-mir-6889] = T

Q) I'd appreciate it if you could say whether CAGUGUUAGCUCCAGAAGCAUUG [hsa-mir-3170] has pull-down binding Z-score at least equal to 0.5.
A) T

Q) I'd appreciate it if you could say whether UGGAGGUGAUGGGGGCAGGGGAUGGGUCUCACCCUCCC [hsa-mir-5088] has pull-down binding Z-score at least equal to 0.5.
A) T

###

Test system: TO-N3 (biotin conjugate)
experiment summary: pull-down binding Z-score (relative to library population); higher = stronger binding
condition context: RNA library: Library-2
Quick rule: pull-down binding Z-score of at least -0.4 means criterion met, below that means criterion not met.

Q) I'd appreciate it if you could say whether GGAGUUCAAAUUGCUUCC [IAV_invivo_NP_5_Motif_19+IAV_invivo_NP_5_Motif_19] has pull-down binding Z-score at least equal to -0.4.
A) criterion not met

Q) I'd appreciate it if you could say whether UUCUGCUGUGCCUUACAGCAGUAGAA [hsa-mir-3179-4_3179-1_3179-3_3179-2] has pull-down binding Z-score at least equal to -0.4.
A) criterion met

Q) I'd appreciate it if you could say whether CCGGGGCAGGAGACCCCGCG [hsa-mir-1470] has pull-down binding Z-score at least equal to -0.4.
A) criterion met

Q) I'd appreciate it if you could say whether CCUGGUCAUGCAGAUCUCAGUGCCAAGGAGGCACAGGAUGUAAUCAUGGAAGUUGUUUUCCCUAACGAAGUGGGAGCCAGG has pull-down binding Z-score at least equal to -0.4.
A) criterion not met

Q) I'd appreciate it if you could say whether GGUGGCAAACCUUGUAUCAAAGUAGCCACU [SHAPE_invitro_SARS-CoV-2_Motif_216] has pull-down binding Z-score at least equal to -0.4.
A) criterion not met
